- Tested on: OVCAR-8 ovarian
- test-details: NCI-60 one-dose screen, 48 h
- conditions-used: 10 µM unless noted
About 83,000 compounds went through this panel and 20% of them were active in at least one assay; those are over-represented in the sample as a whole. Calls of active or inactive are those of the source. Rule for the calls: active = growth percent below 10; inactive = the rest.
Labels: 1.0 (active), 0.0 (inactive)

compound: CCCCCCCCCCCC[n+]1ccccc1
class-name: 1.0
//
compound: Cc1c(CN2CCN(C(=O)[C@H](C)O)CC2)sc2c(N3CCOCC3)nc(-c3cnc(N)nc3)nc12
class-name: 1.0
//
compound: CCc1nc2cc(/C=C/C(=O)NO)c(F)cc2c(=O)n1CCc1ccccc1
class-name: 1.0
//
compound: C[C@@H](Nc1cc(F)cc(F)c1)c1cc(C(=O)N(C)C)cc2c(=O)cc(N3CCOCC3)oc12
class-name: 0.0
//
compound: CSc1nc2ncncc2[nH]1
class-name: 0.0
//
compound: COc1cc(C2CC(c3ccc(Cl)cc3)=NN2c2ccc(Cl)cc2)cc(OC)c1OC (configuration not stated)
class-name: 0.0
//
compound: COc1cc(N2CCC(N(C)C)CC2)ccc1Nc1ncc(Cl)c(Nc2ccccc2P(C)(C)=O)n1
class-name: 1.0
//
compound: CO[C@@H](C)Cn1c(=O)n(C)c2cnc3ccc(-c4cncc(C(C)(C)O)c4)cc3c21
class-name: 1.0
//
compound: COc1cnc2c(c1)C(=O)c1c-2n(CCCN2CCC(O)CC2)c(=O)c2cc(Cl)ccc12
class-name: 0.0
//
compound: COc1ccc(C(=O)N2c3ccccc3Sc3ccccc32)c(F)c1
class-name: 0.0
//
compound: NN1C(=O)CSC1=S
class-name: 0.0
//
compound: COc1cc(NCCCN)c2ncccc2c1
class-name: 0.0
//
compound: O=C(NC[C@H](O)CO)c1ccncc1Nc1ccc(I)cc1F
class-name: 0.0
//
compound: Nc1nc(Nc2ccccc2)c(C=Nc2ccccc2)c(=O)[nH]1
class-name: 0.0
//
compound: C[C@@H](N)c1ccc(C(=O)Nc2ccnc3[nH]ccc23)cc1
class-name: 0.0
//
compound: Cc1ccc(N)cc1CN1C(=O)c2ccccc2C1=O
class-name: 0.0
//
compound: Clc1nc(Cl)c2ncn(C/C=C\Cn3cnc4c(Cl)nc(Cl)nc43)c2n1
class-name: 1.0
//
compound: CC(C)C1CCC(C)C(C2(C#N)C(N)=NC(N)=C2C#N)C1=O (configuration not stated)
class-name: 0.0
//
compound: CC1(O)CCC2CC3OC3(C)CCC3OC3(C)C(O)CC1C2(C)C (configuration not stated)
class-name: 0.0
//
compound: Cn1nccc1Nc1nccc(-c2ccn([C@H](CO)c3ccc(Cl)c(F)c3)c(=O)c2)n1
class-name: 0.0
//
compound: Cc1cc(-c2cc(OC(=O)c3ccccc3)ccc2Cl)cc2nnc(Nc3ccc(OCCN4CCCC4)cc3)nc12
class-name: 0.0
//
compound: Fc1ccc(NCc2cn(-c3ccccc3)nc2-c2ccc(OCc3ccccc3)cc2)cc1Cl
class-name: 0.0

---

- Test system: SNB-75 CNS
- test-details: NCI-60 one-dose screen, 48 h
- conditions-used: 10 µM unless noted
About 83,000 compounds went through this panel and 20% of them were active in at least one assay; those are over-represented in the sample as a whole. Active and inactive are the calls of the source. How the source made its calls: active means growth percent below 10; inactive means the rest.
Labels: active, inactive

compound: CC(C)[C@@H](C)/C=C/[C@@H](C)[C@H]1CCC2=C3C=CC4=CC(=O)CC[C@]4(C)[C@H]3CC[C@@]21C
class-name: inactive

compound: CC1(O)CCC(Nc2cc(-c3ccc(C(F)(F)F)cc3)c(C#N)c3nc4ccccc4n23)CC1 (centres undefined)
class-name: inactive

compound: CCN1CCN(Cc2ccc(-c3cc4c(N[C@H](C)c5ccccc5)ncnc4[nH]3)cc2)CC1
class-name: inactive

compound: O=C1NC(=O)[C@@H](c2cn3c4c(cccc24)CCC3)[C@@H]1c1c[nH]c2ccccc12
class-name: active

compound: Cc1cc(Oc2ccccc2)ccc1Nc1ncnc2ccc(-c3cnc(Cl)c(NS(C)(=O)=O)c3)cc12
class-name: active

compound: Cc1cc(O)cc(-c2c(-c3ccnc(-c4cccnc4)c3)cnn2C)c1
class-name: inactive

compound: CC(C)[C@@H]1CC[C@]2(CO2)[C@@H]2C(=O)OCC(C(=O)O)=C[C@H]21
class-name: inactive

compound: Cc1c(Cn2c(C)nc3c(C(=O)O)cc(N4CCOCC4)cc32)cccc1C(F)(F)F
class-name: inactive

compound: CNc1ncc2cc(-c3cc(NC(=O)NCCC(C)(C)C)c(F)cc3C)c(C)nc2n1
class-name: active

compound: Cc1ccccc1Nc1nc2nonc2nc1Nc1cccc(C)c1C
class-name: inactive

compound: Cn1ncc(Cl)c1-c1cc(C(=O)N[C@H](CN)Cc2cccc(F)c2)sc1Cl
class-name: active

compound: CN[C@@H]1C[C@H]2O[C@@](C)([C@@H]1OC)n1c3ccccc3c3c4c(c5c6ccccc6n2c5c31)C(=O)N[C@H]4O
class-name: active

compound: Cn1c(Nc2ccc(C(F)(F)F)cc2)nc2cc(Oc3ccnc(-c4ncc(C(F)(F)F)[nH]4)c3)ccc21
class-name: inactive

compound: CC(C)=CCc1cc2c(cc1O)C1=C(C(=O)C3=C(NCCS3(=O)=O)C1=O)C(C=C(C)C)O2 (centres undefined)
class-name: inactive

compound: CCc1nc2cc(/C=C/C(=O)NO)c(F)cc2c(=O)n1CCc1ccccc1
class-name: inactive

compound: C=CC(=O)N1CCC(Oc2cc3c(Nc4ccc(Cl)c(Cl)c4F)ncnc3cc2OC)CC1
class-name: active

compound: COc1cc2cc(NCc3ccc(Cl)cc3)nc(C)c2cc1OC
class-name: inactive

compound: Clc1ccc(/C=C/c2cc(N3CCOCC3)c3cc(Cl)c(Cl)cc3n2)cc1
class-name: inactive

compound: COc1cccc(Nc2ncnn3ccc(CN4CC[C@@H](N)[C@H](O)C4)c23)c1
class-name: active

compound: CC(C)(C)CC(C)(C)Nc1c(-c2c(O)c3ccccc3oc2=O)nc2c(Cl)cc(C(F)(F)F)cn12
class-name: inactive

compound: O=S1(=O)OC(c2cc(Cl)c(O)c(Br)c2)(c2cc(Cl)c(O)c(Br)c2)c2ccccc21
class-name: inactive

compound: CC1(O)CCC2CC3OC3(C)CCC3OC3(C)C(O)CC1C2(C)C (centres undefined)
class-name: inactive

compound: O=C1/C(=C\c2cccc(OCCCCCOc3ccc(Cl)cc3)c2)N=C2SCCCN12
class-name: inactive

compound: NC[C@@](O)(c1ccc(Cl)cc1)c1ccc(-c2cn[nH]c2)cc1
class-name: active

compound: CSc1nc2ncnc(SC)c2[nH]1
class-name: inactive

compound: Cc1cccc(Cl)c1NC(=O)c1cnc(Nc2cc(N3CCOCC3)cc(S(C)(=O)=O)c2)s1
class-name: active

compound: Nc1c(Cl)cccc1[N+](=O)[O-]
class-name: inactive

compound: C[C@@H](C[C@H](CCO)c1cc(C(F)(F)F)cc(C(F)(F)F)c1)c1ccc2ccccc2c1
class-name: inactive

compound: COCc1c(-c2ccc(NC(=O)Nc3cc(C(F)(F)F)ccc3F)c(F)c2)c2c(N)ncnn2c1CN1CCOCC1
class-name: active

compound: C=CC(=O)Nc1cc2c(Nc3ccc(F)c(Cl)c3)ncnc2cc1C#CC(C)(C)N1CCN(C)CC1
class-name: active

compound: Nc1ccc(S(=O)(=O)O)c2cc(S(=O)(=O)O)cc(O)c12
class-name: inactive

compound: COc1ccc2c(OCc3nnc4ccc(-c5ccccc5)nn34)ccnc2c1
class-name: inactive

compound: COC(=O)c1ccc2c(C(=Nc3ccc(N(C)C(=O)CN4CCN(C)CC4)cc3)c3ccccc3)c(O)[nH]c2c1
class-name: inactive

compound: CCN(CC)CCNc1ccc(N=Nc2cnc3ccccc3c2)c2ccccc12
class-name: active

compound: O=C(NO)c1ccc(Cn2c(=O)n(-c3ccccc3F)c(=O)c3ccccc32)cc1
class-name: active

compound: Cc1cc(C(O)CN(C)C)cc2c1ccc1cc(C(C)C)ccc12 (centres undefined)
class-name: active

compound: O=S1(=O)OC(c2ccc(O)c(Cl)c2)(c2ccc(O)c(Cl)c2)c2ccccc21
class-name: inactive

compound: COc1cc(Nc2ncc(F)c(Nc3ccc4c(n3)NC(=O)C(C)(C)O4)n2)cc(OC)c1OC
class-name: active

compound: O=C(NOCCO)c1cc(CN2OCCCC2=O)c(F)c(F)c1Nc1ccc(I)cc1F
class-name: inactive
